// data source = the Human Domainome abundance scans (Beltran et al. 2025)

B1: Far upstream element-binding protein 1, residues 184 to 257; numbered along this chain, Q96AE4 (parent)
chain: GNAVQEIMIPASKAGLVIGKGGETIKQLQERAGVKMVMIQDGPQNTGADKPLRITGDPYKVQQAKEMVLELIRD

Variants of: B1
Assay: abundance fitness (aPCA) (normalised: wild type 0, dead -1); higher = more abundant; growth selection in yeast, the domain comes from the species named
Conditions: Homo sapiens
Reported abundance fitness values follow for various variants
measurement-kind: abundance fitness

>>> df
    mutation_string   measurement_kind  reported_result
 0             E23N  abundance fitness           -0.026
 1             R31F  abundance fitness           -0.155
 2             L71A  abundance fitness             -0.1
 3             Q62T  abundance fitness           -0.011
 4             G47R  abundance fitness           -0.096
 5             T55C  abundance fitness           -0.065
 6             K26L  abundance fitness           -0.087
 7             I25D  abundance fitness           -0.359
 8             Q27I  abundance fitness           -0.019
 9             G33N  abundance fitness           -0.063
10             L52I  abundance fitness           -0.055
